- Measured Target: UniProt:P30559
- Test Name: Functional assay No. 1: inhibition of Ca2+-mobilization by FLIPR
- Assay Conditions: HEK cells, OT 40 nM
I'd appreciate it if you could supply pIC50 values for the items below.
Numbers only, as −log10 of the molar value.

Illustrative cases are given below, each with its answer.
> print(dat)
                           substance.smiles  measured.target  test.readout  value.reported
1  CON=C1C[C@@H](c2nc(C)no2)N(C(=O)c2ccc(-c3ccccc3)cc2)C1   UniProt:P30559         pIC50            8.40
2  CON=C1C[C@@H](c2nnco2)N(C(=O)c2ccc(-c3ccccc3)cc2)C1   UniProt:P30559         pIC50            6.66
3  CO/N=C1/C[C@@H](c2nc(C)no2)N(C(=O)c2ccc(-c3ccccc3C)cc2)C1   UniProt:P30559         pIC50            8.40
4  CON=C1C[C@@H](c2nc(C)no2)N(C(=O)c2ccc(-c3ccccc3C)cc2)C1   UniProt:P30559         pIC50            7.92

Consider now this further compound.
input: What value of pIC50 has been recorded for this entry: CON=C1C[C@@H](c2nc(C)no2)N(C(=O)c2ccc(-c3ccccc3Cl)cc2)C1
output: 9.00

----------
I'd appreciate it if you could supply IC50 values for the items below.
- Measured Target: hOT receptor (Homo sapiens, UniProt P30559)
- Sequence (P30559 whole entry): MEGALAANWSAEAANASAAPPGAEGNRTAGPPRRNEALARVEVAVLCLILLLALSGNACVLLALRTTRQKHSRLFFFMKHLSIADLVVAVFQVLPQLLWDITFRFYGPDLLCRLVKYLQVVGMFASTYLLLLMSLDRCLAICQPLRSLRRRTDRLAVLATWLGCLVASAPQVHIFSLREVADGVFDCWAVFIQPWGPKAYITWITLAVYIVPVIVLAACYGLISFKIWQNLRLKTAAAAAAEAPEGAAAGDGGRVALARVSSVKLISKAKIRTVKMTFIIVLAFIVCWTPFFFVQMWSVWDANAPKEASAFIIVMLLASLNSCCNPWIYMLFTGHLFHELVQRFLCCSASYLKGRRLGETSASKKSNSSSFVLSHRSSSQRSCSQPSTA
One number for each entry, in nM.

Illustrative cases are given below, each with its answer.
> print(dat)
                                   molecule  test.readout   u  value.reported
1  CCC(O)c1noc([C@@H]2CC(=NOC)CN2C(=O)c2ccc(-c3ccccc3)cc2)n1 (mixture of isomers)          IC50  nM               6
2  CON=C1C[C@@H](c2nc(CCO)no2)N(C(=O)c2ccc(-c3ccccc3)cc2)C1          IC50  nM              11
3  CON=C1C[C@@H](c2noc(C3CCN(C(C)=O)CC3)n2)N(C(=O)c2ccc(-c3ccccc3)cc2)C1          IC50  nM               2

Batch of 4 molecules: report IC50 for each.
1. CON=C1C[C@@H](c2nc(C)no2)N(C(=O)c2ccc(-c3ccccc3)cc2)C1
2. CON=C1C[C@@H](c2nc(C)no2)N(C(=O)c2ccc(-c3ccccc3C)cc2)C1
3. CO/N=C1/C[C@@H](c2nc(C)no2)N(C(=O)c2ccc(-c3ccccc3C)cc2)C1
4. CO/N=C1\C[C@@H](c2nc(C)no2)N(C(=O)c2ccc(-c3ccccc3C)cc2)C1

output:
1: 88; 2: 21; 3: 9; 4: 23
